Species on record: Homo sapiens
testProtocol: Inhibition of ADP (5 uM) induced platelet aggregation in human platelet rich plasma
Format: functional, organism-based
measurementContext: Homo sapiens, Plasma
Please go through the items and note down their pIC50.
Numbers only, as −log10 of the molar value.

{"columns": ["compound", "observed"],
 "data": [
  ["CC(SCCc1c(CCCO)oc2c(OCC(=O)O)cccc12)(c1ccccc1)c1ccccc1", 5.05],
  ["O=C(O)COc1cccc2c(CCCSCC(c3ccccc3)c3ccccc3)coc12", 5.77],
  ["CC#CCC(C)[C@H](O)/C=C/[C@@H]1[C@H]2c3cccc(CCCC(=O)O)c3O[C@H]2C[C@H]1O (stereo partly drawn) [BERAPROST SODIUM]", 8.12],
  ["O=C(O)COc1cccc2c(CCSC(c3ccccc3)c3ccccc3)c(CO)oc12", 5.48],
  ["O=C(O)COc1cccc2c(CSCCC(c3ccccc3)c3ccccc3)coc12", 4.89]
]}

Go through the items and report each one's pIC50.
1. CCC(SCCc1c(CO)oc2c(OCC(=O)O)cccc12)(c1ccccc1)c1ccccc1
2. CC(c1ccccc1)(c1ccccc1)S(=O)(=O)CCc1c(CO)oc2c(OCC(=O)O)cccc12
3. O=C(O)COc1cccc2c(CCSCC(c3ccccc3)c3ccccc3)coc12
4. CC(c1ccccc1)(c1ccccc1)[S+]([O-])CCc1c(CO)oc2c(OCC(=O)O)cccc12 (stereo not drawn)
5. O=C(O)COc1cccc2c(CSCC(c3ccccc3)c3ccccc3)coc12

1: 4.25; 2: 5.52; 3: 6.14; 4: 5.10; 5: 4.70

* * *

Organism: Homo sapiens
testProtocol: Inhibition of ADP (5 uM) induced platelet aggregation in human platelet rich plasma
Assay type: functional, organism-based
measurementContext: Homo sapiens, Plasma
Please go through the items and note down their IC50.

// known answers, use as guide
{"columns": ["chemicalString", "measuredAttribute", "observed"],
 "data": [
  ["O=C(O)CCC/C=C\\C[C@@H]1[C@H](CNNC(=O)Nc2ccccc2)[C@H]2CC[C@H]1O2", "IC50", "> 10 µM"],
  ["O=C(O)COc1cccc2c(CSC(c3ccccc3)c3ccccc3)coc12", "IC50", "> 100 µM"]
]}

Given item CCCC(SCCc1c(CO)oc2c(OCC(=O)O)cccc12)(c1ccccc1)c1ccccc1 , the value recorded as its IC50 is > 100 µM

The reported numbers originate from ChEMBL document CHEMBL1141147.
